# TESTED_TARGET: PCSK9 (Homo sapiens, UniProt Q8NBP7)
QUANTITY: IC50 (µM)
Give a bare numeral; the unit µM is implied.

Query: Query for PCSK9 (Homo sapiens, UniProt Q8NBP7): what IC50 does the record show for COc1ccc2nc(N)[nH]c2c1C#N [Fig 12A, cyano-benzimidazole derivative] ?
Result: 103
